Consider the following compounds; for each one, report its collision cross section (N2).
details: [M+2K]2+; instrument: TW; calibrated with phosphatidylcholines (ESI+) and phosphatidylethanolamines (ESI-), doubly charged cardiolipins calibrated with poly-DL-…
Expressed in Å², but write only the number.

Task item: Supply measured collision cross section (N2) of CCCCCC/C=C\CCCCCCCC(=O)OC(COC(=O)CCCCCCCCCCCCC)COP(=O)(O)OCC(O)COP(=O)(O)OCC(COC(=O)CCCCCCCCCCCCCCC)OC(=O)CCCCCCC/C=C\CCCCCC (stereo not given) [CL(62:2)] in your reply.
Reply: 418.5

Task item: Supply measured collision cross section (N2) of CCCCCC/C=C\CCCCCCCC(=O)OC(COC(=O)CCCCCCCCCCCCCCC)COP(=O)(O)OCC(O)COP(=O)(O)OCC(COC(=O)CCCCCCCCCCCCCCC)OC(=O)CCCCCCC/C=C\CCCCCCCC (stereo not given) [CL(66:2)] in your reply.
Reply: 426.8

Task item: Supply measured collision cross section (N2) of CCCCCC/C=C\CCCCCCCC(=O)OC(COC(=O)CCCCCCCCCCCCCCC)COP(=O)(O)OCC(O)COP(=O)(O)OCC(COC(=O)CCCCCCCCCCCCC)OC(=O)CCCCCCCCCCCCCCC (stereo not given) [CL(62:1)] in your reply.
Reply: 419.8

Task item: Supply measured collision cross section (N2) of CCCCCCCC/C=C\CCCCCCCC(=O)OC(COC(=O)CCCCCCCCCCCCCCC)COP(=O)(O)OCC(O)COP(=O)(O)OCC(COC(=O)CCCCCCCC1CC1CCCCCC)OC(=O)CCCCCCCCCCCCCCC (stereo not given) [CL(67:2)] in your reply.
Reply: 427.9

Task item: Supply measured collision cross section (N2) of CCCCCC/C=C\CCCCCCCC(=O)OCC(COP(=O)(O)OCC(O)COP(=O)(O)OCC(COC(=O)CCCCCCCCCCCCCCC)OC(=O)CCCCCCCC1CC1CCCCCC)OC(=O)CCCCCCC/C=C\CCCCCC (stereo not given) [CL(65:3)] in your reply.
Reply: 424.2

All values here come from the C3SDB collision cross section collection.
